Reported growth values are given for each entry in this list.
system: HS 578T breast; experiment: NCI-60 one-dose screen, 48 h (100 = growth as untreated, 0 = no growth, -100 = all killed); settings: 100 µM
Compounds without any hit were thinned out: in the full panel of roughly 83,000, 20% have a hit. The source made the active and inactive calls. The calls were made as follows: active = growth percent below 10; inactive = the rest.

Query block: Report growth for CC(=O)/C=C/c1ccc(N(CCO)Cc2ccc(C(C)(C)C)cc2)cc1 please.
Result block: -52.9% (active)

Query block: For CCN(Cc1ccccc1)c1ccc(/C=C2\COc3ccccc3C2=O)cc1 then?
Result block: 59.4% (inactive)

Query block: For CC(=O)/C=C/c1ccc(OCc2ccc(Cl)cc2)cc1 then?
Result block: 51.9% (inactive)

Query block: For CC(=O)/C=C/c1ccc(OCc2ccc(C(C)(C)C)cc2)cc1 then?
Result block: 10.3% (inactive)

Query block: For COc1ccc(C(=O)/C=C/c2ccc(OCc3cccc(C(F)(F)F)c3)c(OC)c2)cc1OC then?
Result block: 11.6% (inactive)

Query block: For CC(=O)/C=C/c1ccc(N(C)Cc2ccc(C(C)(C)C)cc2)cc1 then?
Result block: -33.3% (active)

Query block: For COc1ccc(C(=O)/C=C/c2ccc(OCc3ccc(Cl)cc3)cc2)cc1OC then?
Result block: -1.6% (active)

// provenance: PubChem BioAssay (NCI)
